experimental system: T1, RTEL1 HHD2 (Homo sapiens, UniProt Q9NZ71-6 1056-1140)
T1 sequence: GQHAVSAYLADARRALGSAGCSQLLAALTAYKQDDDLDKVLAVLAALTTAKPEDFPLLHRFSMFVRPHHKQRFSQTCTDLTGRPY
protocol notes: NMR titration (TITAN); pH 6.5; NMR: 20 mM Tris-HCl pH 7.4, 50 mM NaCl, 2 mM DTT, 0.02% NaN3, 10% D2O, 25 C (one ssDNA-22 titration at pH 6.5); ITC: 10 mM potassium phosphate pH 6.5, 50 mM KCl, 0.02% NaN3, 25 C
run parameters: protein: recombinant; tags: N-terminal 6xHis; single strand
assay readout: pKd
Notebook: values listed as pKd are -log10 of the concentration (mol/L).

Exercise: Fill in reported pKd for this entry: AGGATTAGGATTAGGATTAGGA (ssDNA) [ssDNA-22]
Key: 5.52
